measurementType: melting point

INSERT INTO results (compound, result) VALUES
  ('FC(F)(F)Oc1ccc2nc(COc3ccccc3)[nH]c2c1', '65 to 66 °C'),
  ('S=C(OCc1ccc(Cl)c(Cl)c1)SC(Cn1ccnc1)c1ccc(Cl)cc1Cl (stereo unspecified)', '140 °C');

Batch: melting point for all items listed.
1. CC(=O)C1CCC2C3CCC4CC5OC5CC4(C)C3C(OC(=O)CCl)CC12C (stereo unspecified)
2. CC(=O)Nc1ccc(S(=O)(=O)F)cc1

**A:**
["163 to 169 °C", "169 to 171 °C"]

Batch: melting point for all items listed.
1. Cn1ccc(C(=O)c2ccccc2)c1
2. CCOC(=O)CN1CCN(Cc2cnc(-c3cc4cccc(N(C)S(=O)(=O)c5cccs5)c4[nH]3)s2)CC1
3. Cc1cccc2[nH]c(C=O)cc12
4. CCc1cc2c(-c3ccccc3Cl)c(NC(=O)Nc3ccc(F)cc3F)cnc2s1
5. Cc1nn(-c2ccc(C(F)(F)F)cn2)cc1COc1ccc(CCC(=O)O)cc1
6. CCC(=O)NCc1ccc2ccn(C3CCN(CCc4ccccc4F)CC3)c2c1
7. CCOC(=O)C1=CC2(CCC1S(=O)(=O)Nc1ccc(F)cc1Cl)S(=O)(=O)CCS2(=O)=O (stereo unspecified)
8. Cc1cccc(C(=O)c2ccccc2F)c1N

**A:**
["90 to 93 °C", "167 to 169 °C", "147 to 149 °C", "217 to 218 °C", "195 to 196 °C", "118 to 119 °C", "88 to 90 °C", "65.5 to 67.5 °C"]

Batch: melting point for all items listed.
1. O=c1oc2cc(O)c(O)cc2c(O)c1C1c2ccccc2Oc2c1c(=O)oc1cc(O)cc(O)c21 (stereo unspecified)
2. COCC(C)N(C(=O)N(CCCl)N=O)C1(O)C(O)C(CO)OC(OCC(C)C)C1O (stereo unspecified)
3. O=C1CN(C(=O)c2ccco2)c2ccccc2N1
4. OCc1cc2ccc3ccccc3c2o1
5. CCOC(=O)c1nc2ccccn2c1S(N)(=O)=O
6. O=C(O)C1Cc2ccccc2N1S(=O)(=O)c1ccc(-c2cccc(Cl)c2)cc1 (stereo unspecified)
7. O=C(c1ccccc1)C(Cl)Cn1cnc(Cl)c1 (stereo unspecified)

**A:**
["> 300 °C", "66 to 68 °C", "229 to 230 °C", "106 to 107 °C", "166 to 168 °C", "78 °C", "106 to 110 °C"]

Batch: melting point for all items listed.
1. COc1cc2cc(COC(C)=O)c(COC(C)=O)c(C)c2cc1OC
2. c1ccc(NN2CCc3ccccc32)cc1
3. COc1cccc(CNC(=O)[C@@H]2CCCN(c3cccc4c3C(=O)N(Cc3ccncc3)C4=O)C2)c1OC
4. COC(=O)Cc1cccc(C(=O)c2ccc(O)cc2)c1
5. CCOC(=O)c1c(C(F)(F)F)oc2ccc(C(F)(F)F)cc2c1=O
6. CCOC(=O)C(C(=O)C(C)C)C(c1ccc(F)cc1)c1ccccn1 (stereo unspecified)
7. NC(=O)c1[nH]cnc1OC(=O)C(=Cc1ccccc1)c1ccccc1
8. FC(F)(F)c1cc(/C=C/c2ncon2)ccc1Cl

**A:**
1. 130 to 131 °C
2. 182 to 183 °C
3. 199 to 200 °C
4. 111 to 113 °C
5. 116 to 120 °C
6. 106 to 108 °C
7. 208 °C
8. 85 to 87 °C
